# protocolNotes: Cytotoxicity against human FR2 cells assessed as growth inhibition at 10 uM measured after 48 hrs by MTT assay relative to control
# Format: cell-based
# experimentalConditions: FR2 cells, read-out: GI
assayEndpoint: inhibition at 48 h, 10 µM
Enter the number, and then the unit.

Hi! Can you tell me inhibition at 48 h, 10 µM for each of these compounds?
1. C#CCOc1ccc(/C=C/C(=O)c2ccc(Br)cc2)cc1
2. O=C(/C=C/c1ccc(OCc2cn(Cc3ccc(Br)cc3)nn2)cc1)c1ccc(Br)cc1
3. Oc1cccc(-c2nc(N3CCOCC3)c3oc4ncccc4c3n2)c1

["9%", "11%", "25%"]

Data request, read-out inhibition at 48 h, 10 µM, for O=C(/C=C/c1ccc(OCc2cn(Cc3ccccc3Br)nn2)cc1)c1ccc([N+](=O)[O-])cc1
2%
